tested on: SD rats; test: animal or person; format: in vivo; settings: rats, tail vein, in words
metric: duration and recovery time compared with remimazolam

[
  {
    "molecule": "CCOC(=O)OC(C)OC(=O)CC[C@@H]1N=C(c2ccccn2)c2cc(Br)c(Br)cc2-n2c(C)cnc21 (stereo partly shown) [Example 16]",
    "result": "significantly shorter"
  },
  {
    "molecule": "Cc1cnc2n1-c1ccc(Br)cc1C(c1ccccn1)=N[C@H]2CCC(=O)OCOC(=O)OC(C)(C)C [Example 49]",
    "result": "significantly shorter"
  },
  {
    "molecule": "COC(=O)OC(C)OC(=O)CC[C@@H]1N=C(c2ccccn2)c2cc(Br)c(Br)cc2-n2c(C)cnc21 (stereo partly shown) [Example 15]",
    "result": "significantly shorter"
  },
  {
    "molecule": "COC(=O)OC(C)OC(=O)CC[C@@H]1N=C(c2ccccn2)c2cc(Br)ccc2-n2c(C)cnc21 (stereo partly shown) [Example 53]",
    "result": "significantly shorter"
  },
  {
    "molecule": "COC(=O)OCOC(=O)CC[C@@H]1N=C(c2ccccn2)c2cc(Br)ccc2-n2c(C)cnc21 [Example 34]",
    "result": "significantly shorter"
  },
  {
    "molecule": "CCOC(=O)COC(=O)CC[C@@H]1N=C(c2ccccn2)c2cc(Cl)c(OC(F)(F)F)cc2-n2c(C)cnc21 [Example 28]",
    "result": "significantly shorter"
  },
  {
    "molecule": "CCOC(=O)COC(=O)CC[C@@H]1N=C(c2ccccn2)c2cc(Br)ccc2-n2c(C)cnc21 [Example 57]",
    "result": "significantly shorter"
  }
]

###

test system: SD rats; assay: animal or person; type: in vivo; settings: SD rats, tail vein injection
metric: Quality of recovery

[
  {
    "molecule": "CCOC(=O)OC(C)OC(=O)CC[C@@H]1N=C(c2ccccn2)c2cc(Br)c(Br)cc2-n2c(C)cnc21 (stereo partly drawn)",
    "result": "+ (“+” means <1 min)"
  },
  {
    "molecule": "CCOC(=O)COC(=O)CC[C@@H]1N=C(c2ccccn2)c2cc(Cl)c(OC(F)(F)F)cc2-n2c(C)cnc21",
    "result": "+ (“+” means <1 min)"
  },
  {
    "molecule": "COC(=O)C(C)(C)OC(=O)CC[C@@H]1N=C(c2ccccn2)c2cc(Br)c(Cl)cc2-n2c(C)cnc21",
    "result": "+ (“+” means <1 min)"
  }
]

###

Examples of compounds with documented 2ED50 duration follow.
system: KM mice; experiment: animal or person; assay type: in vivo; conditions: KM mice, single tail vein injection at 2×ED50; time from disappearance to recovery of righting reflex

[
  {
    "compound": "CCC(CC)OC(=O)OCOC(=O)CC[C@@H]1N=C(c2ccccn2)c2cc(Br)ccc2-n2c(C)cnc21",
    "2ED50 duration, min": 7.84
  },
  {
    "compound": "COC(=O)C1(OC(=O)CC[C@@H]2N=C(c3ccccn3)c3c(Cl)cc(OC(F)(F)F)cc3-n3c(C)cnc32)CC1.O=C(O)O",
    "2ED50 duration, min": 6.01
  },
  {
    "compound": "COC(=O)CC[C@@H]1N=C(c2ccccn2)c2cc(Br)ccc2-n2c(C)cnc21 [Remimazolam, reference compound]",
    "2ED50 duration, min": 8.58
  },
  {
    "compound": "Cc1cnc2n1-c1cc(Br)c(Br)cc1C(c1ccccn1)=N[C@H]2CCC(=O)OCOC(=O)OC(C)(C)C",
    "2ED50 duration, min": 5.31
  },
  {
    "compound": "COC(=O)C(OC(=O)CC[C@@H]1N=C(c2ccccn2)c2cc(Cl)cc(OC(F)(F)F)c2-n2c(C)cnc21)C1CCCCCCCCC1 (stereo partly drawn)",
    "2ED50 duration, min": 3.54
  },
  {
    "compound": "COC(=O)C1(OC(=O)CC[C@@H]2N=C(c3ccccn3)c3cc(Cl)c(C(F)(F)F)cc3-n3c(C)cnc32)CC1 [Example 25]",
    "2ED50 duration, min": 5.32
  },
  {
    "compound": "CCCOC(=O)OCOC(=O)CC[C@@H]1N=C(c2ccccn2)c2cc(Br)ccc2-n2c(C)cnc21",
    "2ED50 duration, min": 3.90
  },
  {
    "compound": "COC(=O)COC(=O)CC[C@@H]1N=C(c2ccccn2)c2cc(Br)c(Br)cc2-n2c(C)cnc21",
    "2ED50 duration, min": 4.47
  },
  {
    "compound": "Cc1c(Br)cc2c(c1Cl)-n1c(C)cnc1[C@H](CCC(=O)OC(C)(C)NC(=O)OC1CCC1)N=C2c1ccccn1",
    "2ED50 duration, min": 3.14
  }
]
